assay: Pharmacokinetic investigations, mouse; assay type: in vivo, mice; conditions: plasma, po, 1 mg/kg p.o., read-out: Bioavailability following oral administration
recordedMetric: bioavailability (%)

compoundSmiles	recordedMetric	assayResult
CC(=O)Nc1ccc(-c2c(C#N)c(N)nc(SCc3ccccn3)c2C#N)cc1	bioavailability	22.1

====

test: Pharmacokinetic investigations, rat; assay type: in vivo, rats; conditions: plasma, po, 1 mg/kg p.o., read-out: Bioavailability following oral administration
recordedMetric: bioavailability (%)

compoundSmiles	assayResult
CC(=O)Nc1ccc(-c2c(C#N)c(N)nc(SCc3ccccn3)c2C#N)cc1	4.6
